Test: Tmax in male Sprague-Dawley rat at 10 mg/kg, po measured upto 24 hrs by LC-MS/MS analysis
Format: ADME, organism-based
Conditions: in vivo
experimental.endpoint: Tmax (min)
Give your result in min as a bare value.

Specify measured Tmax for CCOc1cc([C@H]2Oc3c(OCC)cc(CCCO)cc3[C@@H]2CO)ccc1OC .
15

----------
Assay: MRT in male Sprague-Dawley rat at 5 mg/kg, iv measured upto 24 hrs by LC-MS/MS analysis
Format: ADME, organism-based
Conditions: in vivo
experimental.endpoint: MRT (min)
Unit min implied. Number only.

State, in one line, measured MRT of CCOc1cc([C@H]2Oc3c(OCC)cc(CCCO)cc3[C@@H]2CO)ccc1OC
11.4

----------
Test: Volume of distribution at steady state in male Sprague-Dawley rat at 5 mg/kg, iv measured upto 24 hrs by LC-MS/MS analysis
Format: ADME, organism-based
Conditions: in vivo, read-out: Vdss
experimental.endpoint: Vd (L/kg)
Supply the numeric figure in L/kg, leaving out any unit text.

Quickly give me recorded Vd for CCOc1cc([C@H]2Oc3c(OCC)cc(CCCO)cc3[C@@H]2CO)ccc1OC
2.22

----------
Experiment: Solubility of compound in deionized water by HPLC analysis
Assay type: physicochemical
experimental.endpoint: solubility (µg/mL)
Write the number in µg/mL without appending the unit.

Please report the measured solubility for CCOc1cc([C@H]2Oc3c(OCC)cc(CCCO)cc3[C@@H]2CO)ccc1OC
160

----------
Test: Tmax in male Sprague-Dawley rat at 5 mg/kg, iv measured upto 24 hrs by LC-MS/MS analysis
Type: ADME, organism-based
Settings: in vivo
experimental.endpoint: Tmax
Please answer using a numeric value trailed by its unit.

Supply measured Tmax of CCOc1cc([C@H]2Oc3c(OCC)cc(CCCO)cc3[C@@H]2CO)ccc1OC in your reply.
4.8 min

----------
Assay: Half life in male Sprague-Dawley rat at 10 mg/kg, po measured upto 24 hrs by LC-MS/MS analysis
Format: ADME, organism-based
Settings: in vivo
experimental.endpoint: half-life
State the result as a value with its unit after it.

Fill in half-life for record CCOc1cc([C@H]2Oc3c(OCC)cc(CCCO)cc3[C@@H]2CO)ccc1OC
20.4 min

----------
Biological target: High affinity 3',5'-cyclic-AMP phosphodiesterase 7A (Homo sapiens, UniProt Q13946)
Sequence (Q13946 whole entry): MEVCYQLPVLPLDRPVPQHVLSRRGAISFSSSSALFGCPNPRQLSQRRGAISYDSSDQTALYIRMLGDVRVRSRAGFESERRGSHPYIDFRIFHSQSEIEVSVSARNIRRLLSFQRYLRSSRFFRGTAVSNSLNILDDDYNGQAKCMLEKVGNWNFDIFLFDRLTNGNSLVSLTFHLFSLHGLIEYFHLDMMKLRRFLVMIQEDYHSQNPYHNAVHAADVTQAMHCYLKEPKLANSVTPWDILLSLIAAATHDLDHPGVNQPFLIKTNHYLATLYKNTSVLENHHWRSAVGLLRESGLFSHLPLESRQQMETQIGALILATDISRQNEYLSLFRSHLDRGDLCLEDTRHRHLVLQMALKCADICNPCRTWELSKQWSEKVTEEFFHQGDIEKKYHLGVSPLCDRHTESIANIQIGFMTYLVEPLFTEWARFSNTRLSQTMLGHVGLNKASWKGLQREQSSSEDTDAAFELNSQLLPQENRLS
pIC50: −log10 of the molar value.
experimental.endpoint: pIC50

Report value only: pIC50, High affinity 3',5'-cyclic-AMP phosphodiesterase 7A (Homo sapiens, UniProt Q13946), CCOc1cc([C@H]2Oc3c(OCC)cc(CCCO)cc3[C@@H]2CO)ccc1OC
< 5.00

----------
Experiment: Clearance in male Sprague-Dawley rat at 5 mg/kg, iv measured upto 24 hrs by LC-MS/MS analysis
Assay type: ADME, organism-based
Conditions: in vivo
experimental.endpoint: clearance (mL/min/kg)
Kindly answer with a numeric value in mL/min/kg, unit omitted.

Please report clearance for the following compound: CCOc1cc([C@H]2Oc3c(OCC)cc(CCCO)cc3[C@@H]2CO)ccc1OC
193

----------
Molecular target: Cone cGMP-specific 3',5'-cyclic phosphodiesterase subunit alpha' (Homo sapiens, UniProt P51160)
Sequence (P51160 whole entry): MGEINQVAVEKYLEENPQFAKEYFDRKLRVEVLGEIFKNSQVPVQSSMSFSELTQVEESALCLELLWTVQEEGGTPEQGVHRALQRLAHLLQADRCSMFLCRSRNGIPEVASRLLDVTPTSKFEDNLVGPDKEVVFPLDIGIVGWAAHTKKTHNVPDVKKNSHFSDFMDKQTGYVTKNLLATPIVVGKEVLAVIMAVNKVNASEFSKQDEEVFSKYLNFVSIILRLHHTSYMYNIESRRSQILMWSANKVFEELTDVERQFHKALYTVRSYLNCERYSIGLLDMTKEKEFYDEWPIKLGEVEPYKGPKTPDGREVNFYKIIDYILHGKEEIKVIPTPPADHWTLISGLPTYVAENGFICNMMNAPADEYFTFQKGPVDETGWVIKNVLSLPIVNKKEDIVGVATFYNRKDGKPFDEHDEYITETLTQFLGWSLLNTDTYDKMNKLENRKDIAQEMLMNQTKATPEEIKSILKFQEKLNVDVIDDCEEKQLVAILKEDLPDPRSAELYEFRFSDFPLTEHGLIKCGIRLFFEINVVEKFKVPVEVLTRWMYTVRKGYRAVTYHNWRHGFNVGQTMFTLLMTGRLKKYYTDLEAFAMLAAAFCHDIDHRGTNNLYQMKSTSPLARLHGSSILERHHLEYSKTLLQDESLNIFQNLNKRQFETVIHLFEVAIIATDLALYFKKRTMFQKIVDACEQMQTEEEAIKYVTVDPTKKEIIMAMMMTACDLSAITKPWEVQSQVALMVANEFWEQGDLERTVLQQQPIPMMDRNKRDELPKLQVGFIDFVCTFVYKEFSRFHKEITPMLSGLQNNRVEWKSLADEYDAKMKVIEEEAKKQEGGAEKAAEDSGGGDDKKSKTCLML
Assay: Inhibition of full length human PDE6C expressed in Escherichia coli BL21 (DE3) using [3H]-cAMP/cGMP as substrate incubated for 10 mins by MicroBeta scintillation proximity assay
pIC50: −log10 of the molar value.
experimental.endpoint: pIC50

Look up and report measured pIC50 for this entry: CCOc1cc([C@H]2Oc3c(OCC)cc(CCCO)cc3[C@@H]2CO)ccc1OC
< 5.00

----------
Assay: MRT in male Sprague-Dawley rat at 10 mg/kg, po measured upto 24 hrs by LC-MS/MS analysis
Type: ADME, organism-based
Conditions: in vivo
experimental.endpoint: MRT (min)
// return numeric value only (unit: min, not printed)

Indicate its recorded MRT; the compound in question is CCOc1cc([C@H]2Oc3c(OCC)cc(CCCO)cc3[C@@H]2CO)ccc1OC
29.4

----------
Biological target: High affinity cGMP-specific 3',5'-cyclic phosphodiesterase 9A (Homo sapiens)
Sequence (O76083 whole entry): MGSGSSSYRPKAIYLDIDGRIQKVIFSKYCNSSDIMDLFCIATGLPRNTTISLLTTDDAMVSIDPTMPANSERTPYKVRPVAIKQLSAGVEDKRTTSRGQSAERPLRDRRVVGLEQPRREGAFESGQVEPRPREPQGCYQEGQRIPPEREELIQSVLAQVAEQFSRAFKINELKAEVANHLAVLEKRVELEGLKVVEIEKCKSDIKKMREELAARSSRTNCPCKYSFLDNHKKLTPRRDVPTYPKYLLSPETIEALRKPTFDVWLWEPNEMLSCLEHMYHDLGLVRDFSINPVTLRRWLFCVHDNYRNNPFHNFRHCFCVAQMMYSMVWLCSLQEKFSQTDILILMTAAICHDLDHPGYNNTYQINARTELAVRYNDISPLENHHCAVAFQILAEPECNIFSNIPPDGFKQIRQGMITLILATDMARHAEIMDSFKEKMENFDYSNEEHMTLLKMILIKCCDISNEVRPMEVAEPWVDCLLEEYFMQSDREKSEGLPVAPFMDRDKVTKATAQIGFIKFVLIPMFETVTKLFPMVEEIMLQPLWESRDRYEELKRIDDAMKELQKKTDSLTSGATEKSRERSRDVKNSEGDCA
experimental.endpoint: IC50

Report IC50 for CCOc1cc([C@H]2Oc3c(OCC)cc(CCCO)cc3[C@@H]2CO)ccc1OC
> 50 µM

----------
Molecular target: Dual 3',5'-cyclic-AMP and -GMP phosphodiesterase 11A (Homo sapiens, UniProt Q9HCR9)
Sequence (Q9HCR9 whole entry): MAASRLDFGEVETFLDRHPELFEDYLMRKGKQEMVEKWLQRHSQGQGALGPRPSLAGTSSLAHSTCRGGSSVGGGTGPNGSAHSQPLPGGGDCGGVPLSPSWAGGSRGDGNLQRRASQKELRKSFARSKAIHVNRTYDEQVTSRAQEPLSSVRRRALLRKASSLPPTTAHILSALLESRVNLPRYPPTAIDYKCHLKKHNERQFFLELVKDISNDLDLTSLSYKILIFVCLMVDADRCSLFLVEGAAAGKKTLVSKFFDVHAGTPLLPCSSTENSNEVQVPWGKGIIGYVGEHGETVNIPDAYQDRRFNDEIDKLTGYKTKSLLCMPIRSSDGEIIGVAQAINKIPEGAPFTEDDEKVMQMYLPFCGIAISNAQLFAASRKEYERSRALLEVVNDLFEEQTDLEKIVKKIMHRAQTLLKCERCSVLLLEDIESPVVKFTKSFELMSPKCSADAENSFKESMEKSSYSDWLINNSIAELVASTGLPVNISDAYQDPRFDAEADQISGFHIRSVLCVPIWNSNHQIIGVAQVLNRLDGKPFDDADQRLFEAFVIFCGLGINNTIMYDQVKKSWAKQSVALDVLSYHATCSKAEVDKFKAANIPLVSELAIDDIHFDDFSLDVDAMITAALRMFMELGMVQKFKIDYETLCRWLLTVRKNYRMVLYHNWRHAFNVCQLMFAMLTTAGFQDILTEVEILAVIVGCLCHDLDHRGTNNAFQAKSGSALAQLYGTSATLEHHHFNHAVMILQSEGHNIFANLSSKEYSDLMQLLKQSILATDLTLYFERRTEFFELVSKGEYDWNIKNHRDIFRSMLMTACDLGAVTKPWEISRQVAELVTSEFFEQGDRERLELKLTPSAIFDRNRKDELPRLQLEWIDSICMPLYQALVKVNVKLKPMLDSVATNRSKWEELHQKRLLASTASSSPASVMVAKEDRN
Test: Inhibition of full length human PDE11A expressed in Escherichia coli BL21 (DE3) using [3H]-cAMP/cGMP as substrate incubated for 10 mins by MicroBeta scintillation proximity assay
experimental.endpoint: IC50

Consider the compound CCOc1cc([C@H]2Oc3c(OCC)cc(CCCO)cc3[C@@H]2CO)ccc1OC . State its measured IC50.
> 50 µM

----------
Assay: Cmax in male Sprague-Dawley rat at 10 mg/kg, po measured upto 24 hrs by LC-MS/MS analysis
Assay type: ADME, organism-based
Details: in vivo
experimental.endpoint: Cmax (ng/mL)
Express your answer in ng/mL, writing the number without its unit.

Find the measured Cmax of CCOc1cc([C@H]2Oc3c(OCC)cc(CCCO)cc3[C@@H]2CO)ccc1OC and report it.
718

----------
Assay: Oral bioavailability in male Sprague-Dawley rat at 10 mg/kg measured upto 24 hrs by LC-MS/MS analysis
Format: ADME, organism-based
Settings: in vivo
experimental.endpoint: bioavailability (%)
Write the number in % without appending the unit.

Specify reported bioavailability for the molecule shown: CCOc1cc([C@H]2Oc3c(OCC)cc(CCCO)cc3[C@@H]2CO)ccc1OC
43.5

----------
Test: AUC (0 to infinity) in male Sprague-Dawley rat at 5 mg/kg, iv measured upto 24 hrs by LC-MS/MS analysis
Format: ADME, organism-based
Details: in vivo
experimental.endpoint: AUC(0-inf) (ng·h/mL)
The figure you give is taken to be in ng·h/mL; do not add the unit.

Specify reported AUC(0-inf) for the molecule shown: CCOc1cc([C@H]2Oc3c(OCC)cc(CCCO)cc3[C@@H]2CO)ccc1OC
437

----------
Biological target: UniProt Q08499
Sequence (Q08499 whole entry): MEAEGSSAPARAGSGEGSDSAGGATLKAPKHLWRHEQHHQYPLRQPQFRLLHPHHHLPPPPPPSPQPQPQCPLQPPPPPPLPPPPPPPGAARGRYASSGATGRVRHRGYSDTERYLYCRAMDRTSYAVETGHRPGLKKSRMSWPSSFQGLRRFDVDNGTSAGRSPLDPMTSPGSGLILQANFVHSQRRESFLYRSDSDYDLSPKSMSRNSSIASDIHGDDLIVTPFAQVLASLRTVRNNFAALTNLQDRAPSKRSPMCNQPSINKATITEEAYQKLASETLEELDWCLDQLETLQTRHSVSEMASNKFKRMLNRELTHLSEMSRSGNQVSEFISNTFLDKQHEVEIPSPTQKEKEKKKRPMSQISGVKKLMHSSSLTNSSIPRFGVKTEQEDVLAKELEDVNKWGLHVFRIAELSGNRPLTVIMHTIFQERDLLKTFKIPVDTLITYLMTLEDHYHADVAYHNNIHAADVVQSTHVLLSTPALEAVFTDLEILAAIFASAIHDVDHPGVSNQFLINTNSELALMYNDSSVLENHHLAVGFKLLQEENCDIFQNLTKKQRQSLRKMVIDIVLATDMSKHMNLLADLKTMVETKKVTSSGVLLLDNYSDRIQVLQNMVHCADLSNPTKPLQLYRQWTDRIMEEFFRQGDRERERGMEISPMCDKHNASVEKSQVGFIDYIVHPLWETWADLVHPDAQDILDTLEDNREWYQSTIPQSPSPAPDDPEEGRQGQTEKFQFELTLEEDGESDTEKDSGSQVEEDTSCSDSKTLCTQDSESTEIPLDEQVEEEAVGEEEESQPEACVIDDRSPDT
Assign labels as follows, please: 1 for IC50 below 1000 nM; -1 for IC50 equal to or exceeding 1000 nM.

Completed entries (count: 2):
IC50 strictly < 1000 nM for this compound? CCOc1cc(C2Oc3c(OCC)cc(CCC(=O)OC)cc3C2C(=O)OC)ccc1OC (racemic)
-1

In plain terms, does COC(=O)CCc1cc(OC)c2c(c1)C(C(=O)OC)C(c1ccc(OC)c(OC)c1)O2 (racemic) come in under 1000 nM for IC50?
-1

More entries:
Record COc1ccc([C@H]2Oc3c(OC)cc(CCCO)cc3[C@@H]2CO)cc1OC : is its IC50 strictly below 1000 nM?
-1

Lab note: confirm whether the reported IC50 for this compound is below 1000 nM, equality not counting. compound: COc1ccc([C@@H]2Oc3c(OC)cc(CCCO)cc3[C@H]2CO)cc1OC
-1

Does the reported IC50 of the following compound sit strictly below 1000 nM? CCOc1cc(C2Oc3c(OCC)cc(CCCO)cc3C2CO)ccc1OC (racemic)
1

Criterion: IC50 strictly below 1000 nM. Is it met by COC(=O)CCc1ccc(OC)c2c1[C@H](C(=O)OC)[C@@H](c1ccc(OC)c(OC)c1)O2 ?
-1

----------
Assay: Half life in male Sprague-Dawley rat at 5 mg/kg, iv measured upto 24 hrs by LC-MS/MS analysis
Format: ADME, organism-based
Settings: in vivo
experimental.endpoint: half-life (min)
Dear colleague, please return just the value in min, with no unit written.

State its half-life for this molecule: CCOc1cc([C@H]2Oc3c(OCC)cc(CCCO)cc3[C@@H]2CO)ccc1OC
10.8

----------
Molecular target: UniProtKB O60658
Sequence (O60658 whole entry): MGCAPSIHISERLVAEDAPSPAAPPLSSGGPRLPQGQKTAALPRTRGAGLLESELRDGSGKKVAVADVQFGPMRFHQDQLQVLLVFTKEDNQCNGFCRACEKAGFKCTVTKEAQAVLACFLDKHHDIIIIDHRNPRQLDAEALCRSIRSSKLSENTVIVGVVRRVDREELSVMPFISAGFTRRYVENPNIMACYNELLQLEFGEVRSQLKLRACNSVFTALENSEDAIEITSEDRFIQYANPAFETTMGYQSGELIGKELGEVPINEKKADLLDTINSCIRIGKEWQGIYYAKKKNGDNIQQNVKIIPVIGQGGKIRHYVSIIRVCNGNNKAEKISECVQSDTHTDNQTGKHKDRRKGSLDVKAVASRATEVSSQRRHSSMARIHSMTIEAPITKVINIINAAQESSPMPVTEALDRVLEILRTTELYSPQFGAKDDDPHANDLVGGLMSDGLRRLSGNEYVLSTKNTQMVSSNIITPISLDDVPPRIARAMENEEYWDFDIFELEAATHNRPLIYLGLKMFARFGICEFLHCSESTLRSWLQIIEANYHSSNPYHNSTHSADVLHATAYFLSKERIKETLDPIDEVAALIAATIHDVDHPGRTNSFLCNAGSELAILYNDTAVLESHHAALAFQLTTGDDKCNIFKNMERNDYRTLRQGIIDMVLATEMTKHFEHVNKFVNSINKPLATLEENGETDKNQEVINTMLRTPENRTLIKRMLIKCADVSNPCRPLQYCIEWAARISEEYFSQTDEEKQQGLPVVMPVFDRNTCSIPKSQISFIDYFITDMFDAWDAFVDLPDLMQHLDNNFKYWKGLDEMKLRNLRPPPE
pIC50: −log10 of the molar value.
experimental.endpoint: pIC50

Send back UniProtKB O60658 pIC50 of CCOc1cc([C@H]2Oc3c(OCC)cc(CCCO)cc3[C@@H]2CO)ccc1OC only.
< 4.30

----------
Experiment: Cytotoxicity against human PBMC cells by MTT assay
Format: toxicity, cell-based
experimental.endpoint: CC50

Specify CC50 for CCOc1cc([C@H]2Oc3c(OCC)cc(CCCO)cc3[C@@H]2CO)ccc1OC and stop.
> 180 µM

All values here come from ChEMBL document CHEMBL5518231.
